meta.source: PubChem BioAssay (NCATS)

assay comment: G06 Cancer Cell Toxicity qHTS against the NCATS CANVASS Library (AID 1347368); also: nearly all actives have a fitted effect of over 60% in size
setup conditions: G06 dog glioma cells, viability ATP luminescence, 72 h; series mostly up to 46.1 µM
Records with an inconclusive call do not appear. Active and inactive are the calls of the source. Calls follow the shape of the dose curve; as a rule, active = well fitted cell-killing curve with a large enough effect; inconclusive = small, poorly fitted or top-dose-only effect; inactive = flat fitted curve, though single readings scatter.
Your reply should match one of these outcome classes. active, inactive

Prompt line: Record lookup: outcome of this test for C[C@@H]1CC[C@]2(C(=O)O)CC[C@]3(C)C(=C2[C@H]1C)CC[C@@H]1[C@@]2(C)CC[C@H](O)C(C)(C)[C@@H]2CC[C@]13C ?
Response line: inactive

Prompt line: Record lookup: outcome of this test for CO[C@@H](C[C@@H](C)[C@@H](O)/C=C/C=C/CNC(=O)C(C)(C)[C@H](O)\C(C)=C/C=C\C=C\Cc1cnco1)[C@]1(O)[C@@H](C)C(=O)N(C)[C@@]12COC2=O ?
Response line: inactive

Prompt line: Record lookup: outcome of this test for COC(=O)[C@@]12Oc3cccc(O)c3C(O)=C1C(=O)C[C@H](C)[C@H]2O ?
Response line: inactive

Prompt line: Record lookup: outcome of this test for C[C@]12CCC[C@](C)(C(=O)O)[C@@H]1CC[C@@]1(C)c3cocc3CC[C@H]21 ?
Response line: inactive

Prompt line: Record lookup: outcome of this test for COc1cc([C@@H]2c3cc4c(cc3C[C@@]3(O[C@@H]5O[C@H](CO)[C@@H](O)[C@H](O)[C@H]5O)COC(=O)[C@H]23)OCO4)cc(OC)c1OC ?
Response line: active

Prompt line: Record lookup: outcome of this test for CC(C)=CCC[C@]1(C)[C@H]2CC(=O)[C@@]3(CO3)[C@@H]1C2 ?
Response line: inactive

Prompt line: Record lookup: outcome of this test for COC(=O)C1=C[C@]23C[C@@H](C)CC[C@@H]2[C@@]2(C)CC[C@@H](C(C)C)[C@@](O)(O3)[C@@H]12 ?
Response line: inactive

Prompt line: Record lookup: outcome of this test for C=C1C(=O)O[C@H]2[C@H]1CCC(C)=C1CC[C@@](C)(O)[C@@H]12 ?
Response line: active

Prompt line: Record lookup: outcome of this test for CC1=C[C@H]2[C@H]3C(=O)C(c4ccc(O)cc4)=C[C@@]3(c3ccc(O)cc3)[C@@H]1C(=O)[C@]2(C)O ?
Response line: active

Prompt line: Record lookup: outcome of this test for CC[C@H]1[C@H](C)[C@H](c2cc(OC)c(OC)cc2OC)[C@@H](C)[C@H](c2cc(OC)c(OC)cc2OC)[C@@]12C=C(OC)C(=O)C=C2OC ?
Response line: active

Prompt line: Record lookup: outcome of this test for O=C1CC2OCC=C3CN4C5CC3C2[C@@H]2N1c1ccccc1[C@]52C[C@@H]4C1=C[C@H]2C3CC4N(CC[C@@]45c4ccccc4N(C1=O)[C@@H]25)C/C3=C/CO (stereo partly specified) ?
Response line: active

Prompt line: Record lookup: outcome of this test for CC1=C(C)C(=O)OC(C(C)C2(O)CCC3C4C5OC5C5(O)CC=CC(=O)C5(C)C4CCC32C)C1 (stereo unspecified) ?
Response line: active

Prompt line: Record lookup: outcome of this test for COc1cc2ccc(=O)oc2c(O)c1O[C@@H]1O[C@H](CO)[C@@H](O)[C@H](O)[C@H]1O ?
Response line: active

Prompt line: Record lookup: outcome of this test for C=CC(CCCCC)C1C(=O)NC(=O)C1C(=O)C1C(/C=C/C)C=CC2CC(C(=O)O)CC(C)C21 (stereo unspecified) ?
Response line: inactive

Prompt line: Record lookup: outcome of this test for C[n+]1cc2cc(C(N)=O)[nH]c3c(=N)c(Cl)c(N)c1c23 ?
Response line: active

Prompt line: Record lookup: outcome of this test for O=C1CC(c2ccc(O)cc2)Oc2cc(O)ccc21 (stereo unspecified) ?
Response line: inactive
